procedure.text: NCI Yeast Anticancer Drug Screen. Data for the sgs1 mgt1 strain (AID 161);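 note: 0% = growth of cultures given vehicle only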
condition.info: S. cerevisiae sgs1 mgt1 strain, at 50.0 µM
About 79,000 compounds went through this panel and 15% of them were active in at least one assay; those are over-represented in the sample as a whole. Activity calls are given as the source filed them. Cut-off read from the data, not from the text of the source: active = growth inhibition above about 70%; inactive = the rest.
Hello, when you answer, please use one of the following outcomes: active, inactive

[
  {
    "molecule": "N=C(N)c1ccc(NC(=O)c2ccc(C(=O)Nc3ccc(C(=N)N)cc3)c(N)c2)cc1",
    "label.value": "inactive"
  }
]

Assay outcome for `CC1(C)CC2(CC3(C1)SCCS3)SCCS2` : what was it?
inactive

Dear colleague, could you share the recorded outcome for `COc1cc(C(C)=O)cc(OCc2ccccc2)c1OC` when you have a moment?
inactive

Any idea what this test logged for Cc1cc(=O)[nH]c(NNC(C#N)c2ccccc2O)n1 (centres undefined) ?
inactive

---

procedure.text: NCI Yeast Anticancer Drug Screen. Data for the rad50 strain (AID 155);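 note: 0% = growth of vehicle-only cultures of the same strain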
condition.info: S. cerevisiae rad50 strain growth inhibition; at 50.0 µM; stronger effect = higher value
Description: Growth inhibition of yeast strains with defined genetic alterations is measured as a screen for potential anti-cancer activity. Selected strains with alterations in DNA damage repair or cell cycle control were exposed to compounds and growth inhibition was measured relative to vehicle treated controls. The strain used in this assay is rad50
Compounds without any hit were thinned out: in the full panel of roughly 79,000, 15% have a hit.
metric: growth inhibition (%)
Express the result in % but write the number alone.

Known growth inhibition results, listed for orientation:
[
  {
    "compound": "COCCOC(=O)C(O)c1ccccc1 (configuration not stated)",
    "growth inhibition / %": 23.9
  },
  {
    "compound": "COc1ccc(C(=O)N=Nc2ccccc2)cc1",
    "growth inhibition / %": 0.05
  },
  {
    "compound": "CC(=O)c1cccc(OC(=O)c2ccccc2)c1",
    "growth inhibition / %": 23.5
  }
]

Can you share its growth inhibition? I mean this compound: `Cc1nc(C)c(N2CCN(Cc3ccccc3)CC2)c(=O)[nH]1`
8.65

Param item = `CS(=O)(=O)OCCCCCCCCCOS(C)(=O)=O` ; retrieve measured growth inhibition.
-10.9

Can you look up the measured growth inhibition of `Cc1ccc(NC(=O)CCc2cc(C(C)(C)C)nc(=S)[nH]2)cc1C` for me?
-36.6

For CCCCC1SC(N)=NC1=O (configuration not stated) , what is its reported growth inhibition?
14.9

---

Measured growth inhibition accompanies every entry in the list below.
procedure.text: NCI Yeast Anticancer Drug Screen. Data for the mlh1 rad18 strain (AID 175)
condition.info: S. cerevisiae mlh1 rad18 strain growth inhibition; at 50.0 µM; stronger effect = higher value
Compounds without any hit were thinned out: in the full panel of roughly 79,000, 15% have a hit.
Quick reminder: number only, in %, skip the unit.

[
  {
    "molecule": "COC(OC)C1OC(C)(C)OC1C(OS(=O)(=O)c1ccc(C)cc1)C1COC(C)(C)O1 (stereo unspecified)",
    "unit.descriptor": "%",
    "growth inhibition": 12.7
  },
  {
    "molecule": "NC(=O)Nc1ccc2[nH]c(=O)c3ccccc3c2c1",
    "unit.descriptor": "%",
    "growth inhibition": 1.45
  },
  {
    "molecule": "O=c1c2cccnc2[nH]c2ccc3[nH]ncc3c12",
    "unit.descriptor": "%",
    "growth inhibition": 15.6
  }
]

I'd like to know its growth inhibition. The molecule in question is `CC(=O)Nc1cccc(Oc2ccc(Cl)cc2[N+](=O)[O-])c1`
7.95

Name the reported growth inhibition value associated with the molecule COC(=O)C(Cc1ccccc1)NC(=O)C(CCC(=O)OCc1ccccc1)NC(=O)OC(C)(C)C (stereo unspecified)
22

---

procedure.text: NCI Yeast Anticancer Drug Screen. Data for the mec2-1 strain (AID 157)
condition.info: S. cerevisiae mec2-1 strain, at 50.0 µM, stronger effect = higher value
Compounds without any hit were thinned out: in the full panel of roughly 79,000, 15% have a hit.
metric: growth inhibition (%)
Just the number please, in %, no unit attached.

Worked examples, 3 compounds total:
[
  {
    "compound": "Cc1ccc(Cl)cc1NC(=O)Oc1ccc(Cl)cc1C",
    "growth inhibition [%]": 9.1
  },
  {
    "compound": "O=C(COc1ccc(Cl)cc1)Nc1ccccc1Br",
    "growth inhibition [%]": 12.1
  },
  {
    "compound": "Cc1c(-c2ccc(Cl)cc2)n[nH]c1-c1[nH]nc(-c2ccc(Cl)cc2)c1C",
    "growth inhibition [%]": -1.95
  }
]

Return reported growth inhibition; argument: `OCc1ccccc1F`
-34

---

# reported growth inhibition; entries follow
procedure.text: NCI Yeast Anticancer Drug Screen. Data for the bub3 strain (AID 167)
condition.info: S. cerevisiae bub3 mutant strain, at 50.0 µM, stronger effect = higher value
The panel holds about 79,000 compounds, 15% with a hit somewhere; the sample as a whole holds those more often. Active and inactive are the calls of the source. Rule as the data show it: active = growth inhibition above about 70%; inactive = the rest.

Consider the worked cases shown below.
[
  {
    "molecule": "C/C=C(/C(=O)NC(N)=O)C(C)C",
    "reading": "-2.55% (inactive)"
  },
  {
    "molecule": "O=C(Nc1nccs1)c1c(O)nc2sccn2c1=O",
    "reading": "14.8% (inactive)"
  },
  {
    "molecule": "Cc1cc(C)c(Br)cc1C",
    "reading": "3% (inactive)"
  },
  {
    "molecule": "Nc1ccc(C2SCC(=O)N2NS(=O)(=O)c2cccc(C(=O)O)c2)cc1 (stereo unspecified)",
    "reading": "-46.2% (inactive)"
  },
  {
    "molecule": "CCOC(=O)c1c(-c2ccccc2)nn(CC(N)=O)c1CO",
    "reading": "18.2% (inactive)"
  },
  {
    "molecule": "CC1(C)O[C@H]2Cn3c(c(C#N)c4ccccc43)[C@H]2O1",
    "reading": "42.1% (inactive)"
  },
  {
    "molecule": "COc1cc2c(cc1O)C(=O)CCCC2",
    "reading": "14.1% (inactive)"
  },
  {
    "molecule": "Cc1ccccc1C=O",
    "reading": "-0.2% (inactive)"
  }
]

growth inhibition lookup needed for C=CCOc1cc2c(cc1C(C)c1ccc(OCC)c(C)c1)OCO2 (stereo unspecified) , thanks.
7.15% (inactive)

For `O=[N+]([O-])c1ccc(Oc2ccc3ccccc3c2)c([N+](=O)[O-])c1` , what is its reported growth inhibition?
-9.75% (inactive)

Item under review: Cc1cccc2c1Oc1ccccc1C2NC(=O)OCCc1ccccc1 (stereo unspecified) . Reported growth inhibition?
-8.05% (inactive)

Look at this molecule and give its reported growth inhibition. CC(c1ccc(O)cc1)c1cc2c(cc1OCCO)OCO2 (stereo unspecified)
99.5% (active)

Returns the measured growth inhibition for the input molecule. Input: `OCCCc1ccccc1`
3.25% (inactive)

Any idea what growth inhibition was measured for `O=C1/C(=C/c2ccccc2)CN(C(=O)/C=C/c2ccccc2)C/C1=C\c1ccccc1` ?
-11.6% (inactive)

Query (molecule): `CN(C)c1ccc(N=Nc2cc3c4ccccc4ccc3c3ccccc23)cc1` ; field requested: growth inhibition
9.45% (inactive)

---

procedure.text: NCI Yeast Anticancer Drug Screen. Data for the cln2 rad14 strain (AID 165);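 note: 0% = growth equal to vehicle treated cultures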
condition.info: S. cerevisiae cln2 rad14 strain, at 50.0 µM, stronger effect = higher value
Method: Growth inhibition of yeast strains with defined genetic alterations is measured as a screen for potential anti-cancer activity. Selected strains with alterations in DNA damage repair or cell cycle control were exposed to compounds and growth inhibition was measured relative to vehicle treated controls. The strain used in this assay is cln2 rad14
This is part of a sample that, as a whole, favours compounds with a hit. Of some 79,000 tested, about 15% had one in any assay.
metric: growth inhibition (%)
# unit: % | format: bare number

Please review the following examples before continuing.
[
  {
    "compound": "Cc1ccc2nc(C)cc(N=[N+]=[N-])c2c1",
    "growth inhibition (%)": -58.9
  },
  {
    "compound": "CCCC(=O)Nc1cc(C(=O)O)cc([N+](=O)[O-])c1",
    "growth inhibition (%)": -26.2
  },
  {
    "compound": "CC(=O)Nc1ccccc1NC1CC(C)N(c2ccccc2)N1C(C)=O (stereo not given)",
    "growth inhibition (%)": -11.5
  }
]

Look up growth inhibition for this compound: `CCOC(=O)CCCCCCCCC(=O)Nc1ccc(-n2[nH]c(=O)cc2C)cc1`
6.95

Quick check: growth inhibition of `COc1ccc(CCNC(=O)Cc2ccc(Cl)cc2)cc1OC` ?
4.2

Which measured growth inhibition value corresponds to `COc1cc(C)c(C#N)c(OC)n1` ?
12.9

So what does the record say about growth inhibition for `O=C(O)c1nc(Cl)c(Cl)[nH]c1=O` ?
-65.6

What does the record list as growth inhibition for `CCN(CC)CCN1C(=O)N(CCN(CC)CC)C(=O)C(CC)(CC)C1=O` ?
22.9

For `Nc1c(Cl)ncnc1Cl` , what is its reported growth inhibition?
-0.65

Need growth inhibition, item `CC(C)(C)OC(=O)c1ccc(NCc2cc(O)ccc2O)cc1`
90.3

What growth inhibition value was documented for this compound, FC1(F)ON2CCc3ccccc3C2[C@H]1c1ccccc1 (stereo not given in full) ?
10

Endpoint output: growth inhibition of `CCN(CC)Cc1cc2[nH]c3c4ccc(Cl)cc4ncc3c2cc1OC` . Value?
-2.65

Need growth inhibition, item `COC(=O)NN/C=C(\C=Nc1ccccc1)[N+](=O)[O-]`
18.4

Give the measured growth inhibition of `OCCCN=C1CCCCC1` .
-54.4

Given the entry `C(=N\OCCc1ccccc1)/c1ccccn1` , report its measured growth inhibition.
-25.3

Which measured growth inhibition value corresponds to `O=C(Nc1nc2ccccc2n1Cc1ccc(Cl)cc1)NC12CC3CC(CC(C3)C1)C2` ?
-30.6

Give its growth inhibition value. Item: `CCOC(=N)c1ccc(C(=N)OCC)cc1`
-20.8

Any idea what its growth inhibition is? The compound is CC1(C)C2CC=C(CCO)C1C2 (stereo not given)
-20.6

Given `CN(C)c1ncnc2cn[nH]c12` , state its recorded growth inhibition.
5.7

What value of growth inhibition has been recorded for this entry: CN1C(=O)c2ccccc2NC(=O)C12O[C@@H]2c1cccc(O)c1 (stereo not given in full)
8.9

For the compound COC(=O)NC1C(=O)CCC(=O)C1C(N)=O (stereo not given) , what growth inhibition is on record?
-17.5

Can you look up the measured growth inhibition of `COc1ccc(N=C2C(=Nc3ccc(OC)cc3)N(c3ccccc3[N+](=O)[O-])C(=S)N2c2ccc(OC)cc2)cc1` for me?
-49.5

growth inhibition for `O=C1CSc2ccnc(=O)n21` ?
11.1

Name the recorded growth inhibition for `COc1ccc(N=C2SC(=N/N=c3\sc4ccccc4n3C)SC2=Nc2ccc(OC)cc2)cc1` .
-41.1

Name the recorded growth inhibition for Cc1cccc2c1Oc1ccccc1C2NC(=O)OCCc1ccccc1 (stereo not given) .
-9.15
